biological target: GLP-1 receptor (GLP-1R), primary cAMP assay cell line (human, UniProt P43220 24-463); experiment: cell-based or functional assay
Starred links: 1 amine or outer side, 2 acyl side, 3 side chain; linkers in the order of their positions; H or OH if unused. Non-standard residues stand in square brackets, D forms with d. Groups on a side chain read outwards from the residue. Primed or numbered codes have the meaning given here. No end group written: not given here. *: point of attachment. γGlu = O=C(O)[C@H](CCC(=O)[*:2])N[*:1]; αMeF = C[C@](N)(Cc1ccccc1)C(=O)O; αMeK = C[C@](N)(CCCCN)C(=O)O; Lauroyl = CCCCCCCCCCCC(=O)*; αMeS = C[C@](N)(CO)C(=O)O; PEG2′ = not defined here; Aib = CC(C)(N)C(=O)O
Recorded Endpoint: cAMP Primary assay EC50, Mean pM GLP-1R (pM)

The examples below pair each entry with its known result.
| Binder | Unit Of Measurement | cAMP Primary assay EC50, Mean pM GLP-1R |
| --- | --- | --- |
| H[Aib]EGS[αMeF]TSDV[αMeS]SK([PEG2′-PEG2′-γGlu-Lauroyl])LEGEK([PEG2′-PEG2′-γGlu-Lauroyl])A[αMeK]EFIAFK([PEG2′-PEG2′-γGlu-Lauroyl])VEGG-NH2 [SEQ ID NO: 481] | pM | 143 |
| H[Aib]EGS[αMeF]TSDV[αMeS]SYK([PEG2′-PEG2′-γGlu-Lauroyl])EGK([PEG2′-PEG2′-γGlu-Lauroyl])AA[αMeK]EFIK([PEG2′-PEG2′-γGlu-Lauroyl])FVVEGG-NH2 [SEQ ID NO: 452] | pM | 80.9 |
| H[Aib]EGS[αMeF]TSDVSK([PEG2′-PEG2′-γGlu-Lauroyl])YLEGEK([PEG2′-PEG2′-γGlu-Lauroyl])A[αMeK]EFIAFK([PEG2′-PEG2′-γGlu-Lauroyl])VEGG-NH2 [SEQ ID NO: 477] | pM | 264 |

1: H[Aib]EGS[αMeF]TSDK([PEG2′-PEG2′-γGlu-Lauroyl])SSYLEGEAA[αMeK]K([PEG2′-PEG2′-γGlu-Lauroyl])FIK([PEG2′-PEG2′-γGlu-Lauroyl])FVVEGG-NH2 [SEQ ID NO: 442]
2: H[Aib]EGS[αMeF]TSDVSK([PEG2′-PEG2′-γGlu-Lauroyl])YLEK([PEG2′-PEG2′-γGlu-Lauroyl])EAA[αMeK]EFIK([PEG2′-PEG2′-γGlu-Lauroyl])FVVEGG-NH2 [SEQ ID NO: 443]
3: H[Aib]EGS[αMeF]TSDVSK([PEG2′-PEG2′-γGlu-Lauroyl])YLEGK([PEG2′-PEG2′-γGlu-Lauroyl])AA[αMeK]EFIK([PEG2′-PEG2′-γGlu-Lauroyl])FVVEGG-NH2 [SEQ ID NO: 444]
Kindly order the items shown according to cAMP Primary assay EC50, Mean pM GLP-1R, from the highest value down. The response must list the labels following the requested ordering.
2, 3, 1
(2: 223 pM, 3: 144 pM, 1: 82 pM)

1: H[Aib]EGS[αMeF]TSDVSK([PEG2′-PEG2′-γGlu-Lauroyl])YLEGEK([PEG2′-PEG2′-γGlu-Lauroyl])A[αMeK]EFIK([PEG2′-PEG2′-γGlu-Lauroyl])FVVEGG-NH2 [SEQ ID NO: 445]
2: H[Aib]EGS[αMeF]TSDK([PEG2′-PEG2′-γGlu-Lauroyl])SSYLEK([PEG2′-PEG2′-γGlu-Lauroyl])EAA[αMeK]EFIK([PEG2′-PEG2′-γGlu-Lauroyl])FVVEGG-NH2 [SEQ ID NO: 439]
3: H[Aib]EGS[αMeF]TSDV[αMeS]SK([PEG2′-PEG2′-γGlu-Lauroyl])LEK([PEG2′-PEG2′-γGlu-Lauroyl])EAA[αMeK]EFIK([PEG2′-PEG2′-γGlu-Lauroyl])FVVEGG-NH2 [SEQ ID NO: 447]
Sort ascending by cAMP Primary assay EC50, Mean pM GLP-1R. The response must list the labels following the requested ordering.
2, 3, 1
(2: 97 pM, 3: 150 pM, 1: 260 pM)

a: H[Aib]EGS[αMeF]TSDVSK([PEG2′-PEG2′-γGlu-Lauroyl])YLEGEAA[αMeK]K([PEG2′-PEG2′-γGlu-Lauroyl])FIK([PEG2′-PEG2′-γGlu-Lauroyl])FVVEGG-NH2 [SEQ ID NO: 446]
b: H[Aib]EGS[αMeF]TSDV[αMeS]SYK([PEG2′-PEG2′-γGlu-Lauroyl])EGEAA[αMeK]K([PEG2′-PEG2′-γGlu-Lauroyl])FIAFK([PEG2′-PEG2′-γGlu-Lauroyl])VEGG-NH2 [SEQ ID NO: 486]
When a and b are compared, which has the higher number for cAMP Primary assay EC50, Mean pM GLP-1R? Lab log: write the label of the selected item as the result.
b
(b: 212 pM, a: 107 pM)

I: H[Aib]EGS[αMeF]TSDV[αMeS]SYK([PEG2′-PEG2′-γGlu-Lauroyl])EGEK([PEG2′-PEG2′-γGlu-Lauroyl])A[αMeK]EFIK([PEG2′-PEG2′-γGlu-Lauroyl])FVVEGG-NH2 [SEQ ID NO: 453]
II: H[Aib]EGS[αMeF]TSDV[αMeS]SK([PEG2′-PEG2′-γGlu-Lauroyl])LEK([PEG2′-PEG2′-γGlu-Lauroyl])EAA[αMeK]EFIAFK([PEG2′-PEG2′-γGlu-Lauroyl])VEGG-NH2 [SEQ ID NO: 479]
Looking at recorded values for cAMP Primary assay EC50, Mean pM GLP-1R, does I or II come in lower? Lab log: write the label of the selected item as the result.
I
(I: 114 pM, II: 186 pM)
